Exercise: for every item that follows, state its recorded stoichiometry N.
STUDY SYSTEM: the molecule itself
ASSAY NAME: cross-linking; spontaneous disulfide bond formation: membrane fractions without chemical crosslinker, SDS–PAGE without 2-ME, anti-HA blot
Form: value (number only, do not type unit).

# stoichiometry N lookup, item HA-Sho1* V105C (natural protein, Saccharomyces cerevisiae, UniProt P40073 1-367, looked up, Sho1, S. cerevisiae, Cys-less (C78S C85S) with a single Cys; source: S. cerevisiae KT079 (sho1Δ), GAL1 promoter, in membrane fraction; not shown: HA, N-terminal, kept) MSISSKIRPTPRKPSRMATDHSFKMKKFYADPFAISSISLAIVSWVIAIGGSISSASTNESFPRFTWWGIVYQFLIISSLMLFYSFDLVDHYRIFITTSIAVAFCYNTNSATNLVYADGPKKAAASAGVILLSIINLIWILYYGGDNASPTNRWIDSFSIKGIRPSPLENSLHRARRRGNRNTTPYQNNVYNDAIRDSGYATQFDGYPQQQPSHTNYVSSTALAGFENTQPNTSEAVNLHLNTLQQRINSASNAKETNDNSNNQTNTNIGNTFDTDFSNGNTETTMGDTLGLYSDIGDDNFIYKAKALYPYDADDDDAYEISFEQNEILQVSDIEGRWWKARRANGETGIIPSNYVQLIDGPEEMHR
2

Would you kindly repeat that for HA-Sho1* S54C (natural protein, Saccharomyces cerevisiae, UniProt P40073 1-367, looked up, Sho1, S. cerevisiae, Cys-less (C78S C85S) with a single Cys; source: S. cerevisiae KT079 (sho1Δ), GAL1 promoter, in membrane fraction; not shown: HA, N-terminal, kept) MSISSKIRPTPRKPSRMATDHSFKMKKFYADPFAISSISLAIVSWVIAIGGSICSASTNESFPRFTWWGIVYQFLIISSLMLFYSFDLVDHYRIFITTSIAVAFVYNTNSATNLVYADGPKKAAASAGVILLSIINLIWILYYGGDNASPTNRWIDSFSIKGIRPSPLENSLHRARRRGNRNTTPYQNNVYNDAIRDSGYATQFDGYPQQQPSHTNYVSSTALAGFENTQPNTSEAVNLHLNTLQQRINSASNAKETNDNSNNQTNTNIGNTFDTDFSNGNTETTMGDTLGLYSDIGDDNFIYKAKALYPYDADDDDAYEISFEQNEILQVSDIEGRWWKARRANGETGIIPSNYVQLIDGPEEMHR ?
2
